Recorded Enzyme Activity Endpoint Assay (purified): Fab'2 by entry
molecular target: pooled human IgG
Numbers only here, please. The scale is ng/µL.

- protein: "PRT-163 (protein) MANQEIRYSEVTPYHVTSVWTKGVTPPANFTQGEDVFHAPYVANQGWYDITKTFNGKDDLLCGAATAGNMLHWWFDQNKDQIKRYLEEHPEKQKINFNGEQMFDVKEAIDTKNDQTNSELFNYFKEKAFPYLSTKHLGVFPDHVIDMFINGYRLSLTNHGPTPVKEGSKDPRGGIFDAVFTRGDQSKLLTSRHDFKEKNLKEISDLIKKELTEGKALGLSHTYANVRINHVINLWGADFDSNGNLKAIYVTDSDSNASIGMKKYFVGVNSAGKVAISAKEIKEDNIGAQVLGLFTLSTGQDSWNQTN"
  test_value: 706

For the protein shown here, PRT-314 (protein) MQITSVWTKGVTPLTPEQFRENNEDVIHAPYLAHQGWYDITKAFDGKDNLLCGAATAGNMLHWWFDQNKTEIEAYLSKHPEKQKIIFGNQELFDLKAAIDTKDSQTNSQLFDYFRDKAFPNLSARQLGVMPDLVLDMFINGYYLNVGKTQSTDVNRPYQDKDKRGGIFDAVFTRGDQTTLLTARHDLKNKGLNDISTIIKQELTEGRALALSHTYANVSISHVINLWGADFNAEGELEAIYVTDSDANPSIGMKKYFVGRNAHGHVAISAKKIEGENIGAQVLGLFTLSSGKDQWQKLS , give the reported Enzyme Activity Endpoint Assay (purified): Fab'2.
599

Where do the numbers come from? From patent US20250027068.
